Could you please report measured IC50 for the items listed next?
Tested on: full length human vWF binding to lyophilized platelets
MEASUREMENT PROTOCOL: Full length human von Willebrand Factor platelet binding assay (FACS)
Format: cell-based
CONDITION: 5 nM full length human vWF, lyophilized platelets, botrocetin; read-out: Inhibition of full length hVWF binding in FACS assay, Average IC50
Oligonucleotides are written 5' to 3', each unit as a sugar letter and its base; * is a phosphorothioate linkage, no mark a phosphodiester; rarer units and linkages stand in square brackets, end groups in braces. Plain capitals give the bases only. d = 2'-deoxy (DNA); r = 2'-OH (RNA)
Answer format: numeric, nM implied, no suffix.

*Q* Report IC50 for AMX237.G7: DNA SELEX 2 aptamer clone (nucleic acid, DNA, backbone not given here, DNA SELEX 2 aptamer clone) DNA: CTACCTACGATCTGACTAGCTTGGTAGCGACTTTGTGGAGCTGCGGTTTGGTCGACGTCAGCTTACTCTCATGTAGTTCC
*A* 6.5

*Q* Find the measured IC50 of AMX205.F7: rRdY aptamer clone (nucleic acid) rGrGrArGdCrGdCrAdCdTdCrArGdCdCrAdCrAdCrGrAdCrAdTdTrGrGdCrGrGrGdTdTrGdTrArAdTdTrAdCdCrAdCrGdCrAdTrGrGdCdTrGdTdTdTrGdTdTdTdCrGrAdCdCdTdCdTdCdTrGdCdTrArGdC and report it.
*A* 0.818
